Data credit: the DeepSol protein solubility set

METHOD_DESCRIPTION: soluble on expression in E. coli; label from the status in PepcDB or PDB records
ASSAY_READOUT: soluble on expression in E. coli

SEQ_TEXT | RESULT
MGSDKIHHHHHHMQSIMPEADYSFLSMDPTMNANTGNKDSLATPSHTPQLQAFCDVVESRRSVRRFTDAPIPDDVLADCLRLAMLAPNSSNLQPWEFYVIDDADKRKRAVKNCMNQNAAKTSARLIAVVARTDVWHDHAKKILREYPDMPVPKKVKDYYNKVVALDFLRGPANVVSVAKWSAIQVVRRIKGPIKSPYYTFEDTKNWATNNTALAAGNLMLALRAHGFDSCPMGGFDEPAMKRLLKLSNHHHIVMMIGAGERADNGVYNTQFRFEQDQFVHYV | not soluble
MILTEVSQPTEGIKLATTNVQAFFKIDSLGNGTLYITDSAVIWISSAAGTKGFSVAYPAIVLHAISTDVSVFPSEHIFVMVDQRKSVRRRRRAPVLRTIQEDDEQRGLELAAAELEDEESDDDEEEPALEIRFVPDDKDSLSQIYHQIAVGQEENPEEDDPMYDDEEEEMEEEMGDDGQGQSGQWFTADNIDHMQMSEEGLANMQRIFGRGDQHQHHHNEDESME | not soluble
MVVNYPRAYTAEQSRPINLVGKQGQAVQISIHYPSQYICANRERILPDWQEQALFWVVIVLQQSKYPLVKSTAEIEREKEHLREKFMRFGCDLAFELRDRGYLADLIDPRTGYPMLSRPGVIPHNDTAVVKALLNYPVLKNKCSVIVHPHWGTAVYPSIFLSAALEHHHHHH | not soluble

* * *

METHOD_DESCRIPTION: soluble on expression in E. coli; label from the status in PepcDB or PDB records

SEQ_TEXT | soluble on expression in E. coli
MARCSVCGAPAVAYIRYQRRYLCRDHYLEFVESKVERAIMRHRLVGKGDRVLAAVSGGKDSSTLLAVLSRLSRRIGFHVVALYIHLGIYEYSEKSREASIRLASQLDVPLIVFDLNEVLGAGIPELAKASKRPPCSVCGMVKRYVINAAAVELGVDAVALGHNADDIAVYNLKSFLNQDLEAISKLGVKTESIPGVAVGRVRPLYYVYEKESFLYSLLAGLPFLHEEC | not soluble
MSLSKNKYLFKYLIVDRKKLDPSYTYKYDNIQWNHKIIAIGDIHGDVESLKLILRHSNLIDENDEWIAEDVMLVQVGDILDRGVFGTYIYDYLLKLQKDAIKKNSKVILIMGNHEQLNLCGAFHYVNESEVMLFFQNNRNNRLFSFTNKNGYYFKKLIRLPVIVKINNIIFTHGGISKHMSEYDINTINLKTRLQIENKCKMFQFEKYNYLSKEGVLWNNEISHQVKLQPKKTCKHLRNILKKYNAKGLVVGHTRQKSHEIQTYCNNSFFLIDTGMSLFMNNGQPYPNYLQIEKGKFKTVHLIVQEYNRKEGHHHHHH | not soluble

* * *

METHOD_DESCRIPTION: soluble on expression in E. coli; label from the status in PepcDB or PDB records
ASSAY_READOUT: soluble on expression in E. coli

SEQ_TEXT | soluble on expression in E. coli
METSDERLAGAAAEGDRGAFALLVERHYDRIFGLSWRLTGSRTEAEDLAQDICAALPMKLRGWRGEARFTTWLYRVVVNASHDLRRRQSAHSRAAAGWGDWELARQDEIGEARAAEEWLAAAMTALPVELRDTVALVLGEEMTQAEAGAVLGLAEGTVAWRMSEVKKRLRAMALREARA | not soluble
MQRTGELPAEHVPVILESSGAGDFHLIDSGNGLKLEQYGDYRVVRPEAQALWRPLVPDRVWQNADAIFTGDTDEDGMGRWRFPKEALGETWPLSLLGVEFLGRFTAFRHVGVFPEQIVHWEWLKNAVETADRPLKVLNLFGYTGVASLVAAAAGAEVTHVDASKKAIGWAKENQVLAGLEQAPIRWICEDAMKFIQREERRGSTYDIILTDPPKFGRGTHGEVWQLFDHLPLMLDICREILSPKALGLVLTAYSIRASFYSMHELMRETMRGAGGVVASGELVIREAGLDGKTPGRVLSTSLFSRWEPK | soluble
MGHHHHHHSHMSERSVSKRTEQKRWYTVQAPEQFDREVLGKTPAEEPDKVLGRTIETTLGELTNDASENNTKLTFKINEVASDSAYTEFIRHELTRDYLRSLVRRGSSKVEAYITVLTTDDYRVQIQPVAVTTKKADASQEKAIRRTMIDLVRETAEDHTFEQLIDSVVEGRLSSAIYGEAKDIYPLRRVEIKKTTLEARPEEVAAEEETAVDVDEEDVDVEA | soluble
MGSDKIHHHHHHMPITQTTSAKKSKPIILMTMGQQDRNQHPYQVMTHKYMQPIVEIAGAIPLLMPTCFGIEDVDRYLDMVDGVYLSGAGSNIDPSLYGQENLTPEKSQDVNRDTVDLAIIAGALKRKLPILGICRGMQELNIALGGTLYQKVYSEPGFDDHREDPQTPNHVQYGPRHPIKTVPGSWLAKLIGDKTMVNSLHGQGICTLGKGLEALAYGEDGLIEAIHGPDYGQFILGVQWHPEWQANDNPDSIKLFQAFGSACRGEVSWQSANDAKLTA | not soluble

What measured soluble on expression in E. coli goes with `MAHHHHHHMGTLEAQTQGPGSMSMAQQFIDIGANLTDDNYFGNYHGKHYHEEDIDVVLQRAERNGLSHIIITSGCLNDFKKAIEIINKYQNLTNIKLVTTIGVHPTRTNELKQEGYLDELLLLCEKNIDKVVAIGEIGLDYERLQFSDKETQLSGYRTLSILHQKYPYLPFFFHCRKSWSDLCQLNKELGYNGCKGVVHCFDGTEEEMNQILNEGWDIGVTGNSLQSIELLNVMKQIPIERLHIETDCPYCGIKKTSAGFKYLKEKDFGVKVEKYQRNKYVQRRNEPSNIIDIAIIMSSIKHISLFEFVNKVYSNSMNMYFPTMN` ? soluble

Looking for the measured soluble on expression in E. coli of `MGLKVLLYDPDGEIAHFLEDIFEVTGHTLYPAGSEEEVFEYLKNEPEFFFLPFSLKEAWVNSLKERATIPIFFLFSEEEEERAKGLGIPEVNLVRVPFNPLELFERLGLLHKMKPKDFQEIGLFNTLVKSHLEEKGVKVKIKGSGGECLVNTYPVSLSCRLEELKELLKKRLRTGRR` , can you help? not soluble

Need soluble on expression in E. coli, item `MAHHHHHHHRSPTRVNDGVDADEVTFVNRFTVHGAPAEFESVFARTAAFFARQPGFVRHTLLRERDKDNSYVNIAVWTDHDAFRRALAQPGFLPHATALRALSTSEHGLFTARQTLPEGGDTTGSGHR` soluble

Looking for the measured soluble on expression in E. coli of `CSDLPEIQNGWKTTSHTELVRGARITYQCDPGYDIVGSDTLTCQWDLSWSSDPPFCEKTEE` , can you help? soluble

Recorded soluble on expression in E. coli of `MGSDKIHHHHHHMKLFTSCKESVKNSIDTKYFSIAHLHSEEETMSIHIHDCYEIYYSISGENQFLIDNKLYYINPGNLFAVNEFESHYVSQVNNSTHERIVISIHPDFLKSLCTSKTNLTYCFKHRGSNFCHKVSLNKEQQSRFMYFINKIIGSHGFGADMIEYASFIELMIFLTSLFINNGESLTPIYKYSNQIEEIIRYINDNVTNDITVKHLAEHFFLSESYICRIFKLSTGTTINKYITARRISMAKALLSNGSSINDVYVKCGFNDYSNFLKSFKKAVGISPKKYSTFSTS` , please. not soluble

What soluble on expression in E. coli value was documented for this sequence, `MDLSEDQIRGLPHHELLGHFLQMREEFNEFQTSSAEIEKMMDSELDDLKTQLKKAETRVQQMTTEQIRNKDRQDDSRVQFAQVEEQLRRENSHLHEQCESQRERIRKLEQRNDVLETSERNKEYLASDLGSKLDHAIEKIAMLESELYERQVAAEEMHRLREEQLRTTERPRLIVEPLRNDPEILPDEPSPGPSKEEFKMSSEDVFMEDVQHHEDVRMEETIAKIDEVRIDDNKNIQEKSQRVSTGTGAGACINRIVKDLMTKVERLDSILSTIRVSNNSSNNNSSHLTTTRA` ? not soluble

Endpoint output: soluble on expression in E. coli of `YSFIGNPVFKKPFELDEMREYYLNFFERRGHGRIERYPVVARWRTDIYLTIASIADFQPFVTSGVAPPPANPLTISQPCIRLDDLDSVGRTGRHLTLFEMMAHHAFNYPGKEIYWKNETVAYCTELLNELGVKKEDIVYKEEPWAGGGNAGPCLEAIVGGLEVATLVFMNLEEHPEGDIEIKGARYRKMDNYIVDTGYGLERFVWASKGTPTVYDAIFPEVVDTIIDNSNVSFNREDERVRRI` . Value? not soluble

Could you share which soluble on expression in E. coli value was measured for `MTEKTTVKTLKDVVVRFCGDSGDGMQLTGTIFSDLSAVFGNTISTFPDYPAEIRAPQGTLGGVSGFQVHIGTDLVRTPGDLADVLVAMNPAALKVNRTHVRRDSIIIIDSDSFMASDLEKAEIASEDFMTELGLTTQELFTVPISSMVKKSTAEFGLDVKAALRCKNMFALGLVCWLFDRPTQHAIDYLNRKFGKKEAILNANIKALADGFNYGHNTHATATTYRIEGRKQTPGVYMDISGNKATAYGLVAAAEHANLNL` ? soluble
